- System: human RORγ (Homo sapiens, UniProt P51449)
- Construct: from Ser253 to Lys518 for human RORγ; expressed in transfected cells; host or cells: CHO cells (transient co-transfection with pG5-Luc)
- Sequence (P51449 253-518): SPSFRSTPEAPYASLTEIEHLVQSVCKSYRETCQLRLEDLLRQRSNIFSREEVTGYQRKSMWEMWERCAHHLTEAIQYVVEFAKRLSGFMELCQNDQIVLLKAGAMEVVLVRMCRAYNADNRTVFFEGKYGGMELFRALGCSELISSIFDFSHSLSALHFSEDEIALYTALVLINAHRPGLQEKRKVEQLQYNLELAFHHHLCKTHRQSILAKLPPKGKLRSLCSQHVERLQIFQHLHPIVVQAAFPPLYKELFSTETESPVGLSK
- Assay text: In-vitro reporter gene assay for inhibitory activity against RORγ transcription, Test Method A (GAL4-hRORγ LBD / pG5-Luc in CHO cells)
- Format: cell-based
- Test settings: luciferase reporter, 2 days
Kindly apply the following: label 1 if EC50 is less than 0.2 µM, label 0 in every other case.

Recorded results for 2 compounds are shown here.
[[record]]
compound = "C[C@@H]1CCC2(c3ccc(CCC(C)(C)C)c(Cl)c3)NC(=O)N(CCC(=O)O)C=C12 (single isomer, unassigned) [Example 12]"
answer_label = "label 0"

[[record]]
compound = "CCOC(=O)CCN1C=C2CN(C(=O)OC(C)(C)C)CC2(c2ccc(CCC(C)(C)C)c(Cl)c2)NC1=O (racemic)"
answer_label = "label 0"


-- ask Threshold test, EC50 < 0.2 µM: COCC1CC[C@@]2(c3ccc(CCC(C)(C)C)c(Cl)c3)NC(=O)N(C34CC(C(=O)O)(C3)C4)C=C2C1 (single isomer, unassigned)
-- reply label 1

-- ask In plain terms, does CC(C)(C)CCc1ccc(C23CC(C)(C)CC2=CN(CCC(=O)O)C(=O)N3)cc1Cl (single isomer, unassigned) [Example 33] come in under 0.2 µM for EC50?
-- reply label 0

-- ask Confirm or reject: EC50 of CC(C)(C)CCc1ccc(C23CCC(CO)C2=CN(CCC(=O)O)C(=O)N3)cc1Cl (single isomer, unassigned) lies strictly below 0.2 µM
-- reply label 1

-- ask API: query returns whether the compound falls strictly under 0.2 µM in EC50. Query: COCC1CC[C@]2(c3ccc(CCC(C)(C)C)c(Cl)c3)NC(=O)N(C34CC(C(=O)O)(C3)C4)C=C2C1 (single isomer, unassigned)
-- reply label 0

-- ask Strictly below 0.2 µM: is that where EC50 of CC(C)(C)CCc1ccc(C23CCCC(CC#N)C2=CN(CCC(=O)O)C(=O)N3)cc1Cl (racemic) sits?
-- reply label 1

Data provenance: patent US20220119355A1
